system_tested: angiotensin converting enzyme (ACE) (Oryctolagus cuniculus, UniProt P12822)
Construct: resulting supernatant was purified with hydroxyapatite to obtain 1 unit/mg protein of angiotensin converting enzyme liquid; tissue Sigma Co., Ltd. (alternative source); host or cells: rabbit lung (acetone powder extract purified with hydroxyapatite)
measurement_protocol: ACE inhibitory activity (Test Example 1, Cheung and Cushman's method, hippuryl histidyl leucine substrate)
Format: biochemical, rabbit
applied_conditions: isolated peptides, Table 9; read-out: ACE inhibitory activity (IC50: μM)
Where a SMILES comes first, the peptide text is derived from it.
I'd be grateful if you could share measured IC50 for these entries.
Express it in µM; write the number only.

Give reported IC50 value for CC(C)C[C@H](NC(=O)[C@@H](N)Cc1c[nH]c2ccccc12)C(=O)O [Tryptophan-leucine, tryptophan-leucine] (H-Trp-Leu-OH; N-terminus and C-terminus assumed)
25.1

Give reported IC50 value for NC(=O)C[C@H](NC(=O)[C@@H](N)Cc1c[nH]c2ccccc12)C(=O)O [Tryptophan-asparagine, tryptophan-asparagine] (H-Trp-Asn-OH; N-terminus and C-terminus assumed)
580

Give reported IC50 value for `CC(C)C[C@H](N)C(=O)N[C@@H](Cc1c[nH]c2ccccc12)C(=O)O`
23

Give reported IC50 value for CC(C)[C@H](N)C(=O)N[C@@H](Cc1ccc(O)cc1)C(=O)O [Valine-tyrosine, valine-tyrosine] (H-Val-Tyr-OH; N-terminus and C-terminus assumed)
11

Give reported IC50 value for CC[C@H](C)[C@H](NC(=O)[C@@H](N)Cc1c[nH]c2ccccc12)C(=O)O [Tryptophan-isoleucine, tryptophan-isoleucine] (H-Trp-Ile-OH; N-terminus and C-terminus assumed)
33.1

---

system_tested: angiotensin converting enzyme (ACE) (Oryctolagus cuniculus)
Construct: resulting supernatant was purified with hydroxyapatite to obtain 1 unit/mg protein of angiotensin converting enzyme liquid; tissue Sigma Co., Ltd. (alternative source); host or cells: rabbit lung (acetone powder extract purified with hydroxyapatite)
Sequence (P12822 34-1310): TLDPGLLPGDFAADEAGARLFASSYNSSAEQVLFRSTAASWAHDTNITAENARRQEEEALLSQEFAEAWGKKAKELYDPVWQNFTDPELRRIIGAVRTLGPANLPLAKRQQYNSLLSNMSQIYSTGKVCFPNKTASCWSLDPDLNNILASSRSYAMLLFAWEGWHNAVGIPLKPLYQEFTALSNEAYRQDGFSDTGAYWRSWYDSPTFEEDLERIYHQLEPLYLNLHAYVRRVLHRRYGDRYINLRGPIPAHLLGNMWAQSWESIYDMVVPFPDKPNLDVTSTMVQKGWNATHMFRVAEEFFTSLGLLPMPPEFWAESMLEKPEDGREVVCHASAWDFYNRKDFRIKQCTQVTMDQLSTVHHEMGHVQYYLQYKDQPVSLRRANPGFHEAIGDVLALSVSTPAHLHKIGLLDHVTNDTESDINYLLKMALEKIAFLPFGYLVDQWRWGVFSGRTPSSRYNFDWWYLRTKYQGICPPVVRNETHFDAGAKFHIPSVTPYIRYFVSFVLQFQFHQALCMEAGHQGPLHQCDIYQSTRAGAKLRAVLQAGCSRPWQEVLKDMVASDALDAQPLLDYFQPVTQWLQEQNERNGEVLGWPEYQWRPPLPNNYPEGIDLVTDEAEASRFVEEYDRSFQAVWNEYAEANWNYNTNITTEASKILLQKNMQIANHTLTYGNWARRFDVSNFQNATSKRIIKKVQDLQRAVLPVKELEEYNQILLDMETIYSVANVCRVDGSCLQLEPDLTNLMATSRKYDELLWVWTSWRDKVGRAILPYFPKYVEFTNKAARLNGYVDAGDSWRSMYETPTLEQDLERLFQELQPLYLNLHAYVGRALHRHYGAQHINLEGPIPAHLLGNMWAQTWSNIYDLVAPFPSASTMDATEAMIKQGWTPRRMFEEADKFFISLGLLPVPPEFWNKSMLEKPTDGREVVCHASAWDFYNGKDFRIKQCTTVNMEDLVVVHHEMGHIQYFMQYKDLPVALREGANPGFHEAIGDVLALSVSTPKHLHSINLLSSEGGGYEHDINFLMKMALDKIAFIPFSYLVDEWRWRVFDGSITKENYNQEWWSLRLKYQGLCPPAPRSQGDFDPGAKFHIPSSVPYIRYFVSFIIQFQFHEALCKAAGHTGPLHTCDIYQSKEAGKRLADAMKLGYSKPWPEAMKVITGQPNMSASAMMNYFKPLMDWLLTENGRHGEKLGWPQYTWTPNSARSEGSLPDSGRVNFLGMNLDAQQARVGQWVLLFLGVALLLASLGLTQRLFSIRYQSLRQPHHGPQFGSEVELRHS
measurement_protocol: ACE inhibitory activity (Test Example 1, Cheung and Cushman's method, hippuryl histidyl leucine substrate)
Format: biochemical, rabbit
applied_conditions: isolated peptides, Table 10; read-out: ACE inhibitory activity (IC50: μM)
Where a SMILES comes first, the peptide text is derived from it.
property: IC50 (µM)
Express it in µM; write the number only.

Give reported IC50 value for N[C@@H](Cc1c[nH]c2ccccc12)C(=O)N[C@@H](Cc1ccc(O)cc1)C(=O)O [Tryptophan-tyrosine, tryptophan-tyrosine] (H-Trp-Tyr-OH; N-terminus and C-terminus assumed)
57

Give reported IC50 value for CSCC[C@H](NC(=O)[C@@H](N)Cc1c[nH]c2ccccc12)C(=O)O [Tryptophan-methionine, tryptophan-methionine] (H-Trp-Met-OH)
36.5

Give reported IC50 value for CC[C@H](C)[C@H](N)C(=O)N[C@@H](Cc1c[nH]c2ccccc12)C(=O)O [Isoleucine-tryptophan, isoleucine-tryptophan]
2

Give reported IC50 value for CSCC[C@H](N)C(=O)N[C@@H](Cc1c[nH]c2ccccc12)C(=O)O [Methionine-tryptophan, methionine-tryptophan] (H-Met-Trp-OH; N-terminus and C-terminus assumed)
3.8

Source: patent US20150183822A1
